Target: SARS-CoV-2 Spike (S) trimer (SARS-CoV-2), P0DTC2
Assay: ELISA on coated S trimer, 1:50
Settings: remark: other sources report otherwise
propertyLabel: OD 450 nm (OD)

{"binder": "AB-009358 (antibody, V domains shown) VH: QVHLVQSGAEVKKPGASVKISCKASGYTFTSYYVHWVRQAPGQGLEWMGIIKPSGAGTIYAQKFQGRVTMTRDTSTSTVYMELSSLISEDTAVYYCARGGGVTDRDYWGQGTLVTVSS VL: QSALTQEASVSATVGQKVTLSCTGNTNNIGGYAVGWHQQISHGAPKTVMFGNSLPSGIPDRFSGSKSGTTASLIISGLQPEDEADYYCSTWDSSLGAVLFGGGTKLTVL", "propertyLabel": "OD 450 nm", "observedResult": 2.76}
{"binder": "AB-009346 (antibody, V domains shown) VH: EVQLVESGGGVVRPGGSLRLSCAASGFTFDDYGMSWVRQAPGKGLEWVSGINWNGGSTGYADSVKGRFTISRDNAKNSLYLQMNSLRAEDTALYYCARWPLLGISGYYHYYMDVWGKGTTVTVSS VL: QSALTQPRSVSGSPGQSVTISCTGTSSDVGGYNYVSWYQQHPGKAPKLMIYDVSKRPSGVPDRFSGSKSGNTASLTISGLQAEDEADYYCCSYAGSYTLLFGGGTKLIVL", "propertyLabel": "OD 450 nm", "observedResult": 2.55}
